Every entry's value here was drawn from the supplement of paper PMC10567573.

B1: STK38L (parent)
chain: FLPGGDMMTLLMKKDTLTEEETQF

Variants of: B1
Experiment: protein stability index of a GFP-peptide fusion (GPS, HEK-293T) (PSI 1-6); higher = more stable;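 also: lentivirally expressed fusions sorted by FACS into six bins by GFP to DsRed ratio, PSI derived from sequencing read proportions per bin multiplied by bin number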
Conditions: c terminus: a fixed tail appended
Returns 1 if the recorded protein stability index is greater than or equal to 3, and 0 otherwise.

Mutation Spec | Category Label
L17T | 0
E19W | 0
E19H | 0
M8L | 0
E20Y | 0
M7A | 1
T22I | 0
M12V | 1
T9S | 0
M8S | 1
T9A | 0
G4A | 0
T22Y | 0
D15F | 0
E21G | 0
L10Y | 0
L11G | 0
E21L | 0
E21H | 0
L17S | 0
